- Measured on: Delta-type opioid receptor (Rattus norvegicus)
- Sequence (P33533 whole entry): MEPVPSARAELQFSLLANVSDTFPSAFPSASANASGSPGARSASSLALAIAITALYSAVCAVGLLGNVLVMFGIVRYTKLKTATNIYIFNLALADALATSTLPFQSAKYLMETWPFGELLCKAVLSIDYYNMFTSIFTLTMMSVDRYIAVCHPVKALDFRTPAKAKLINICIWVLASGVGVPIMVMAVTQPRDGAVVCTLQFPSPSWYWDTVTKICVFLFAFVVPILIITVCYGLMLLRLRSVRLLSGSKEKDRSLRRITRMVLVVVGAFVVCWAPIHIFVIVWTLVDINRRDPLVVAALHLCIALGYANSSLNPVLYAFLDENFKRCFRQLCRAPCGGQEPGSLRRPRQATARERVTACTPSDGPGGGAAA
- Test protocol: Inhibition of [3H]DADLE radioligand binding to rat brain opioid receptor delta 1.
Reported metric: IC50 (nM)
One number for each entry, in nM.

Solved entries (count: 3):
CN1CCC2(c3cccc(O)c3)CC1C[C@@H](NC(=O)c1ccccc1)C2 (stereo not given in full)
487
CCCCCN1CCC2(c3cccc(O)c3)CC1Cc1[nH]c3ccccc3c12 (stereo not given)
6.9
CCCCCCCN1CCC2(c3cccc(O)c3)CC1Cc1[nH]c3ccccc3c12 (stereo not given)
46.7

IC50 for C=CCN1CCC2(c3cccc(O)c3)CC1Cc1[nH]c3ccccc3c12 (stereo not given) is 140
